# Tested on: MDA-MB-435
Pick from Yes (active), No (inactive) when you respond.

• Cc1cc2c(cc1Cl)SC(=Nc1ccc(Cl)cc1)N(S(=O)(=O)c1ccc(Br)s1)S2(=O)=O = No
• CC[C@@H]1C(=O)N(C)c2cnc(Nc3ccc(C(=O)NC4CCC(N5CCN(CC6CC6)CC5)CC4)cc3OC)nc2N1C(C)C (stereo not given in full) = Yes
• COc1cc2c(cc1OCCCCCOc1ccc(-c3nc4ccccc4s3)cc1)N=C[C@@H]1CCCN1C2=O = No
• CN1CCN(c2ccc3nc(-c4[nH]ncc4Nc4ncnc5[nH]ccc45)[nH]c3c2)CC1 = Yes
• O=C(O)CN(CCN(CC(=O)O)CC(=O)O)CCN(CC(=O)O)CC(=O)O = No

# lookup: test call for `CCCN1CCC(Oc2cc(Nc3nc(Nc4cccc(F)c4C(N)=O)c4cc[nH]c4n3)c(OC)cc2Cl)CC1`
No

Now consider `N#Cc1cnc2ccc(NCc3cnc[nH]3)cc2c1Nc1ccc(F)c(Cl)c1` .
No

Now consider `Cc1ccc(/C=C/C(=O)c2ccc(F)cc2)s1` .
No

Now consider `Cc1ccc(NC(=O)c2ccoc2)cc1-c1ccc(C(=O)NCC2CC2)cc1` .
No

Now consider `CC(=O)Nc1ccc(CC[C@H]2CCC/C=C/[C@@H]3C[C@H](O)C[C@H]3[C@H](O)/C=C/C(=O)O2)cc1` .
Yes

Now consider `CCCCCOC(=O)c1c(C)[nH]c(/C=C2\N=C(c3ccc[nH]3)C=C2OC)c1C` .
Yes

* * *

# Test system: EKVX NSCLC
# TEST_DETAILS: NCI tumour cell line growth inhibition, 48 h
This listing pairs compounds with measured GI50.

// solved cases for GI50 follow
- O=C(O)CN(CCN(CC(=O)O)CC(=O)O)CCN(CC(=O)O)CC(=O)O: 3.26 µM
- N#Cc1nc2cc(Cl)c(Cl)cc2nc1-c1ccc(Cl)cc1: > 100 µM
- Oc1ccc(CCNc2nc3ccccc3c3[nH]c4ccccc4c23)cc1O: 8.99 µM
- C=CC(=O)N1CCN([C@@H](CC2CC2)c2ccc([C@H](C)Nc3ncc4c(n3)N(CC)C(=O)OC4)cc2)CC1: 14.1 µM
- CC(C)Cn1cnc2c(N)nc3ccccc3c21: 26.2 µM

Query GI50 on EKVX NSCLC for `CCOC(=O)c1sc2nc(=S)[nH]c(NC(N)=S)c2c1C`
2.49 µM

* * *

# Test system: MDA-MB-231 breast
# TEST_DETAILS: NCI tumour cell line growth inhibition, 48 h
ENDPOINT_NAME: TGI (µM)
Provide only the numeric value, understood in µM.

• C=C1C(=O)O[C@@H]2C[C@@]3(C)CCC[C@H](C)C3=C[C@H]12 (tested in a mixture with another compound) = 6.72

Query: TGI; subject: `O=C(CSc1nc2ccccc2c(=O)n1-c1ccccc1)N=Nc1c(O)[nH]c2ccc(Br)cc12`
3.58

* * *

# Test system: CCRF-CEM leukemia
# TEST_DETAILS: NCI tumour cell line growth inhibition, 48 h; in the data active means GI50 below about 0.43 µM; inactive means the rest
Pick from YES for active, NO for inactive when you respond.

Some solved cases for reference:
- C=CCn1c(SCC(=O)Nc2ccc(C(=O)/C=C/c3cc(OC)c(OC)c(OC)c3)cc2)nnc1-c1cc(OC)c(OC)c(OC)c1: NO
- O=C(O)CN(CCN(CC(=O)O)CC(=O)O)CCN(CC(=O)O)CC(=O)O: NO
- COC1C(OC(=O)/C=C/C=C/C=C/C=C/C(=O)O)CCC2(CO2)C1C1(C)OC1CC=C(C)C (stereo not given): NO
- CCCCCOC(=O)c1c(C)[nH]c(/C=C2\N=C(c3ccc[nH]3)C=C2OC)c1C: YES
- CN1CCC2(CC1)C(=O)Nc1cc(NC(=O)c3ccc4c(c3)C[C@@H]3C(C)(C)[C@H](O)[C@H](F)C[C@@]3(C)O4)ccc12: YES

# lookup: test call for `CC[O-].CC[O-].[O-]c1ccccc1C=NC12CC3CC(CC(C3)C1)C2.[O-]c1ccccc1C=NC12CC3CC(CC(C3)C1)C2.[Ti+4]`
NO

* * *

# Tested on: MDA-MB-435
# TEST_DETAILS: NCI tumour cell line growth inhibition, 48 h
ENDPOINT_NAME: TGI

- O=C(CSc1nc2ccccc2c(=O)n1-c1ccccc1)N=Nc1c(O)[nH]c2ccc(Br)cc12: 34 µM
- OC1C2CN3CCN(C2)CC1(c1ccccc1)C3 (stereo unspecified): > 100 µM
- CN(C)CC1CCC/C(=C\c2ccc(Cl)c(Cl)c2)C1=O (stereo unspecified): 18.1 µM

Query: TGI; subject: `CCCCOc1ccc(/C=C/C2=[N+](CCO)CCO2)cc1`
> 100 µM

Now consider `C=CCn1c(SCC(=O)Nc2ccc(C(=O)/C=C/c3cc(OC)c(OC)c(OC)c3)cc2)nnc1-c1cc(OC)c(OC)c(OC)c1` .
10.7 µM

Now consider `NC(=O)N/N=C(\Cc1cc(=O)oc2cc(O)ccc12)C(=O)Nc1ccccc1C(N)=O` .
> 100 µM

Now consider `COc1ccc(-c2nn3ncccc3c2-c2ccnc(Nc3ccc(F)c(F)c3)n2)cc1` .
> 25 µM

Now consider `O=c1oc2ccccc2cc1P(=O)(O)O` .
> 100 µM

Now consider `CCOC(=O)CCCN` .
> 100 µM

Now consider `Cc1ccc(NC(=O)c2ccoc2)cc1-c1ccc(C(=O)NCC2CC2)cc1` .
> 25 µM

Now consider `Cc1cc(NC(=O)NCCCOc2ccc(N3C(N)=NC(N)=NC3(C)C)cc2Cl)ccc1S(=O)(=O)F` .
33.2 µM

* * *

# Test system: SF-539 CNS
# TEST_DETAILS: NCI tumour cell line growth inhibition, 48 h; in the data active = GI50 below about 0.43 µM; inactive = the rest
Pick from Y = active, N = inactive when you respond.

Some solved cases for reference:
* COC1C(OC(=O)/C=C/C=C/C=C/C=C/C(=O)O)CCC2(CO2)C1C1(C)OC1CC=C(C)C (stereo not given) | N
* CC(=O)Nc1ccc(CC[C@H]2CCC/C=C/[C@@H]3C[C@H](O)C[C@H]3[C@H](O)/C=C/C(=O)O2)cc1 | Y
* Cc1ccc(NC(=O)c2ccoc2)cc1-c1ccc(C(=O)NCC2CC2)cc1 | N
* CCOc1cc(/C=C/C(=O)CC(=O)/C=C/c2ccc(OC(=O)CNc3nc4ccc(OC)cc4s3)c(OCC)c2)ccc1OC(=O)CNc1nc2ccc(OC)cc2s1 | N
* COc1ccc(-c2nn3ncccc3c2-c2ccnc(Nc3ccc(F)c(F)c3)n2)cc1 | N
* COCCn1c(Nc2ccc(C(=O)NO)cc2)nc2ccccc21 | N
* C/C(=C1\C(=O)Nc2ccccc21)c1cccc(/C(C)=C2/C(=O)Nc3ccccc32)n1 | N
* O=C(O)CN(CCN(CC(=O)O)CC(=O)O)CCN(CC(=O)O)CC(=O)O | N
* N#Cc1cnc2ccc(NCc3cnc[nH]3)cc2c1Nc1ccc(F)c(Cl)c1 | N

Here's the next entry for you.
# lookup: test call for `COc1ccc2c(c1[N+](=O)[O-])CC[C@@H]1[C@@H]2CC[C@]2(C)C(=O)CC[C@@H]12`
N

* * *

This listing pairs compounds with measured TGI.
# Tested on: HT29 colon
# TEST_DETAILS: NCI tumour cell line growth inhibition, 48 h

// solved cases for TGI follow
• CC(C)C(Sc1nc(-c2ccccc2)c(-c2ccccc2)[nH]1)C(=O)N/N=C/c1ccc(Cl)cc1 (configuration not stated) = 36.9 µM
• CCCN1CCC(Oc2cc(Nc3nc(Nc4cccc(F)c4C(N)=O)c4cc[nH]c4n3)c(OC)cc2Cl)CC1 = 1.6 µM
• O=c1[nH]nc(-c2ccc3ccccc3c2)[nH]1 = > 100 µM
• C[C@]12CC[C@H]3[C@@H](CCC4=CC(=O)CC[C@@]43C)[C@]1(O)CC[C@]2(O)C(=O)CO = > 100 µM
• CN(C)C(=C1C(Br)=C(Br)C(Br)=C1Br)N(C)C = > 100 µM

Continue with the compound presented below.
Query TGI on HT29 colon for `Nc1nc(N)c2cc(-c3cc4ccccc4[nH]3)ccc2n1`
38.9 µM

* * *

# System: PC-3 prostate
# TEST_DETAILS: NCI tumour cell line growth inhibition, 48 h
ENDPOINT_NAME: TGI

// solved cases for TGI follow
* C[C@]12CCC(=O)C=C1CC[C@@H]1[C@@H]2CC[C@]2(C)C(=O)/C(=C/c3ccc([N+](=O)[O-])cc3)C[C@@H]12 | > 100 µM
* COc1cc(OC)c(OC)cc1/C=C/c1ccccn1 | > 10 µM
* CN(C(=O)Cc1cc(Cl)c(Cl)cc1NC(=O)CCCN)[C@H]1CCCC[C@@H]1N1CCCC1 | > 100 µM
* O=C(O)CSC1=NCCN1 | > 100 µM

Continue with the compound presented below.
Query: TGI; subject: OC1C2CN3CCN(C2)CC1(c1ccccc1)C3 (centres undefined)
> 100 µM

Each recorded value in this set is attributed to PubChem BioAssay (NCI).
